Hey, just so you know, these numbers are from patent US11584728B2.

tested on: HepG2 human hepatocarcinoma cells; test: Rotenone ATP-Assay (Complex I by-pass); assay type: cell-based; settings: Homo sapiens, 1 h; HepG2 cells, 50 micromolar rotenone, 60 minutes, ATP bioluminescence; read-out: EC50 Rotenone ATP Assay

{"columns": ["Molecule", "EC50"],
 "data": [
  ["CC1=C(C)C(=O)C(CC[C@](C)(O)CC/C=C(\\C)CC/C=C(\\C)CCC=C2CCC2)=C(C)C1=O [Compound D]", "> 3 µM"],
  ["CC1=C(C)C(=O)C(CC[C@@](C)(O)CCC=C(F)F)=C(C)C1=O [Compound K]", "> 3 µM"],
  ["CC1=C(C)C(=O)C(CC[C@@](C)(O)COCCC[Si](C)(C)C)=C(C)C1=O [Compound M]", "1 to 3 µM"],
  ["CC1=C(C)C(=O)C(CC[C@@](C)(O)CC/C=C(\\C)CCC=C(F)F)=C(C)C1=O [Compound L]", "< 1 µM"],
  ["CC1=C(C)C(=O)C(CC[C@](C)(O)CCC=C(F)F)=C(C)C1=O [Compound I]", "> 3 µM"],
  ["COC1=C(OC)C(=O)C(CCCCCCCCCCO)=C(C)C1=O [Idebenone, reference compound]", "1 to 3 µM"],
  ["CC(C)=CCC/C(C)=C/CC/C(C)=C/CC[C@@](C)(O)CCC1=C(C)C(=O)C(C)=C(C)C1=O [Vatiquinone, reference compound]", "> 3 µM"],
  ["CC1=C(C)C(=O)C(CC[C@](C)(O)CCCCCCCCC(F)(F)F)=C(C)C1=O [Compound N]", "1 to 3 µM"]
]}

* * *

test system: HepG2 human hepatocarcinoma cells; assay: Rotenone ATP-Assay (Complex I by-pass); assay type: cell-based; conditions: Homo sapiens, 1 h; HepG2 cells, 50 micromolar rotenone, 60 minutes, ATP bioluminescence; read-out: EC50 Rotenone ATP Assay
pEC50: −log10 of the molar value.
Endpoint Name: pEC50

{"columns": ["Compound", "Reported Value"],
 "data": [
  ["CC1(C)CC[C@]2(NC(=O)C(C)(F)F)CC[C@]3(C)[C@H](C(=O)C=C4[C@@]5(C)C=C(C#N)C(=O)C(C)(C)[C@@H]5CC[C@]43C)[C@@H]2C1 [Omaveloxolone, reference compound]", "< 5.52"],
  ["CC1=C(C)C(=O)C(CC[C@](C)(O)CC/C=C(\\C)CC/C=C(\\C)CCC=C2COC2)=C(C)C1=O [Compound E]", "5.52 to 6.00"],
  ["CC1=C(C)C(=O)C(CC[C@](C)(O)CC/C=C(\\C)CCC=C(F)F)=C(C)C1=O [Compound H]", "> 6.00"]
]}

* * *

system: frataxin deficient fibroblasts (GM03665); test: Frataxin Deficient Fibroblast Viability Assay (BSO Assay); settings: Homo sapiens, 48 h, read-out: EC50 (nM) BSO Assay

{"columns": ["Compound", "EC50"],
 "data": [
  ["CC1=C(C)C(=O)C(CC[C@](C)(O)CC/C=C(\\C)CCC=C(F)F)=C(C)C1=O [Compound H]", "100 to 1000 nM"],
  ["CC1=C(C)C(=O)C(CC[C@](C)(O)CC/C=C(\\C)CC/C=C(\\C)CCC=C2CCCC2)=C(C)C1=O [Compound F]", "< 100 nM"],
  ["CC1(C)CC[C@]2(NC(=O)C(C)(F)F)CC[C@]3(C)[C@H](C(=O)C=C4[C@@]5(C)C=C(C#N)C(=O)C(C)(C)[C@@H]5CC[C@]43C)[C@@H]2C1 [Omaveloxolone, reference compound]", "< 100 nM"],
  ["CC(C)=CCC/C(C)=C/CC/C(C)=C/CC[C@@](C)(O)CCC1=C(C)C(=O)C(C)=C(C)C1=O [Vatiquinone, reference compound]", "< 100 nM"],
  ["CC1=C(C)C(=O)C(CC[C@](C)(O)CCCCCCCCC(F)(F)F)=C(C)C1=O [Compound N]", "100 to 1000 nM"],
  ["CC1=C(C)C(=O)C(CC[C@](C)(O)CC/C=C(\\C)CC/C=C(\\C)CCC=C(F)F)=C(C)C1=O [Compound C]", "< 100 nM"]
]}

* * *

system: HepG2 human hepatocarcinoma cells; experiment: Rotenone ATP-Assay (Complex I by-pass); assay type: cell-based; conditions: Homo sapiens, 1 h; Table 7; HepG2 cells, 50 micromolar rotenone, 60 minutes; read-out: Rotenone ATP Assay EC50
Simple rule here: EC50 less than 2 µM is Criterion met, otherwise Criterion not met.

{"columns": ["Compound", "System", "Qualitative Label"],
 "data": [
  ["CC1=C(C)C(=O)C(CC[C@](C)(O)CC/C=C(\\C)CCC=C(F)F)=C(C)C1=O", "HepG2 human hepatocarcinoma cells", "Criterion met"],
  ["CC1=C(C)C(=O)C(CC[C@@](C)(O)CC/C=C(\\C)CCC=C(F)F)=C(C)C1=O", "HepG2 human hepatocarcinoma cells", "Criterion met"],
  ["COC1=C(OC)C(=O)C(CCCCCCCCCCO)=C(C)C1=O [Idebenone, reference compound]", "HepG2 human hepatocarcinoma cells", "Criterion met"],
  ["CC1=C(C)C(=O)C(CC[C@](C)(O)CCCCCCCCC(F)(F)F)=C(C)C1=O", "HepG2 human hepatocarcinoma cells", "Criterion not met"],
  ["CC1=C(C)C(=O)C(CC[C@@](C)(O)COCCC[Si](C)(C)C)=C(C)C1=O", "HepG2 human hepatocarcinoma cells", "Criterion met"],
  ["CC1=C(C)C(=O)C(CC[C@](C)(O)CC/C=C(\\C)CC/C=C(\\C)CCC=C2COC2)=C(C)C1=O", "HepG2 human hepatocarcinoma cells", "Criterion not met"]
]}

* * *

tested on: frataxin deficient fibroblasts (GM03665); experiment: Frataxin Deficient Fibroblast Viability Assay (BSO Assay); conditions: Homo sapiens, 48 h, read-out: EC50 (nM) BSO Assay

{"columns": ["Compound", "EC50"],
 "data": [
  ["CC1=C(C)C(=O)C(CC[C@@](C)(O)CC/C=C(\\C)CCC=C(F)F)=C(C)C1=O [Compound L]", "< 100 nM"],
  ["CC(=CCC/C(C)=C/CC/C(C)=C/CC[C@@](C)(O)CCC1=C(C)C(=O)C(C)=C(C)C1=O)CF [Compound B]", "< 100 nM"],
  ["CC1=C(C)C(=O)C(CC[C@](C)(O)CC/C=C(\\C)CC/C=C(\\C)CCC=C2CCCCC2)=C(C)C1=O [Compound G]", "< 100 nM"]
]}

* * *

Listed below: EC50 values for each entry.
tested on: GM03665 cells; experiment: RSL3 Toxicity Assay (RSL3 Assay); assay type: cell-based, human; conditions: Homo sapiens; Table 3; GM03665 cells, RSL3 2 μM, 24 hours, MTT; mean of at least three measurements; nM printed in Table 7; read-out: RSL3 Assay EC50, Mean

{"columns": ["Compound", "Unit Symbol", "EC50"],
 "data": [
  ["CC1=C(C)C(=O)C(CC[C@](C)(O)CCCCCCCCC(F)(F)F)=C(C)C1=O", "nM", 93],
  ["CC1=C(C)C(=O)C(CC[C@@](C)(O)CC/C=C(\\C)CCC=C(F)F)=C(C)C1=O", "nM", 41.9],
  ["CC(C)=CCC/C(C)=C/CC/C(C)=C/CC[C@@](C)(O)CCC1=C(C)C(=O)C(C)=C(C)C1=O [Vatiquinone, reference compound]", "nM", 56],
  ["CC1=C(C)C(=O)C(CC[C@](C)(O)CC/C=C(\\C)CCC=C(F)F)=C(C)C1=O", "nM", 179],
  ["CC1=C(C)C(=O)C(CC[C@@](C)(O)COCCC[Si](C)(C)C)=C(C)C1=O", "nM", 41.2],
  ["CC1=C(C)C(=O)C(CC[C@](C)(O)CC/C=C(\\C)CC/C=C(\\C)CCC=C2COC2)=C(C)C1=O", "nM", 73.2]
]}
